molecular target: T1, human integrin αvβ5 (human, UniProt P06756 31-992; P18084 24-719); assay: SPR, Biacore 3000, peptide immobilised on CM5 chip, integrin 30-1000 nM flowed; grade A = dissociation constant 50 nM or less
T1 construct: soluble analyte in SPR at 30, 100, 300 and 1,000 nM in HEPES buffer with 5 mM magnesium chloride; heterodimer of an alpha and a beta chain
T1 sequence (P06756 31-992, chain 1 of 2): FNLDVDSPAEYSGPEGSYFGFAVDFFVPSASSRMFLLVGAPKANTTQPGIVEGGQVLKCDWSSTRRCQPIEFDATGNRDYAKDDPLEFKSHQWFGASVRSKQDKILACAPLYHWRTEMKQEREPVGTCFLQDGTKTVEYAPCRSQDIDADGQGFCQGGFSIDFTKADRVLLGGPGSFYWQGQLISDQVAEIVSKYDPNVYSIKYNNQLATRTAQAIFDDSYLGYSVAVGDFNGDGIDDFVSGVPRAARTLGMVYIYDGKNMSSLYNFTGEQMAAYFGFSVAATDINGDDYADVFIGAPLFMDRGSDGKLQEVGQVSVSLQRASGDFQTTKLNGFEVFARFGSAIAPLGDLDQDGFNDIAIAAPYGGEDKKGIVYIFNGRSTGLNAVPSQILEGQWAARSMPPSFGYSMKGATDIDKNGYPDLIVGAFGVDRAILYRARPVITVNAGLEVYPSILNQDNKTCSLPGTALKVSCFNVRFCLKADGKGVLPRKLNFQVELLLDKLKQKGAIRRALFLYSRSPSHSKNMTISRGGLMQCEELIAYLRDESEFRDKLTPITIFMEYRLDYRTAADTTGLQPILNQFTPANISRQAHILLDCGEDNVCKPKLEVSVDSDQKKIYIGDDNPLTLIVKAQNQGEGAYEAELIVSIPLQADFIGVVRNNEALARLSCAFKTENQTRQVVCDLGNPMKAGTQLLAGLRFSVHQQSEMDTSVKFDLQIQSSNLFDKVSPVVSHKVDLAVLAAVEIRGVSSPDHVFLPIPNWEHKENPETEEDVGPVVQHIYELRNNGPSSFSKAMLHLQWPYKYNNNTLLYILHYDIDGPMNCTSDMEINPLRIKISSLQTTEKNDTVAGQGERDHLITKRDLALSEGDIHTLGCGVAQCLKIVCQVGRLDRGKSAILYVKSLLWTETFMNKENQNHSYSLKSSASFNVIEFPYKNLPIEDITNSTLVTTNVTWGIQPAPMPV
T1 sequence (P18084 24-719, chain 2 of 2): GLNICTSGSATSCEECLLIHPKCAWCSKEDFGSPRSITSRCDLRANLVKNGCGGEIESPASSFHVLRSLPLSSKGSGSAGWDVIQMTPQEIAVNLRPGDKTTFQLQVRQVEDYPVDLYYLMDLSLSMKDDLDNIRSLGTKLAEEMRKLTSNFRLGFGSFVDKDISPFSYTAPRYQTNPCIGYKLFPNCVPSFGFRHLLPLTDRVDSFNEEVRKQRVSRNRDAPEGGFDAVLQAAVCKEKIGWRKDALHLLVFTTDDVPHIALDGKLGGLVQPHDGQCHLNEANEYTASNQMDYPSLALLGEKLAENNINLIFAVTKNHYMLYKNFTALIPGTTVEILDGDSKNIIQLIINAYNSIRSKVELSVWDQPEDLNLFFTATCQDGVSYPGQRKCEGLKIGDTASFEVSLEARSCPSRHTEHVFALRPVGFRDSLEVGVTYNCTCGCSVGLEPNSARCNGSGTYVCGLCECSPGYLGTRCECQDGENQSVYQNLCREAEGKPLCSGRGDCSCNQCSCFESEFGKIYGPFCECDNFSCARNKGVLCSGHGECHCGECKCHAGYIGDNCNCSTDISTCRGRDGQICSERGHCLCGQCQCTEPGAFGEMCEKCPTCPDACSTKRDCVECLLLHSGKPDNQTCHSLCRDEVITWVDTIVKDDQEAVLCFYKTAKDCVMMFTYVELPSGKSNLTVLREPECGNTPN
Bridge positions count the residues as written; N and C are the ends. Square brackets hold non-standard residues; d marks the D form. Ends that are not written are not given here. COCH2 = acetyl group that carries the bridge; Pen = CC(C)(S)[C@H](N)C(=O)O; hCys = N[C@@H](CCS)C(=O)O; Orn = NCCC[C@H](N)C(=O)O; Dap = NC[C@H](N)C(=O)O
// dissociation constant (KD) lookup, one value per entry

A selection of reference data follows.
# BINDER, METRIC, RESULT
records = [
    ("{CH2CO}-I[hCys]RGDK(COCH2)F[hCys]KKK (thioether 2-6, N-8) [Cyclic peptide 11]", "dissociation constant (KD)", "< 0.05 µM"),
    ("{CH2CO}-I[Orn](COCH2)RGD[hCys]FCKKK (thioether 2-6 via Ac; thioether N-8; not fully specified, bicyclic; all residues L; immobilised on CM5 chip through amino groups) [Cyclic peptide 15]", "dissociation constant (KD)", "≤ 0.05 µM"),
    ("{CH2CO}-I[Dap](COCH2)RGDCF[hCys]KKK (thioether 2-6 via Ac; thioether N-8; not fully specified, bicyclic; all residues L; immobilised on CM5 chip through amino groups) [Cyclic peptide 14]", "dissociation constant (KD)", "≤ 0.05 µM"),
]

Given {CH2CO}-E[Orn]RGD[hCys]F[Pen]KKK (thioether N-8; bridge 2-6; not fully specified (residue 2, bridges); printed as E RGD- -F-(Pen)-KKK) [Cyclic peptide 24] , state its recorded dissociation constant (KD).
< 0.05 µM

For {CH2CO}-I[hCys]RGDK(COCH2)F[hCys]K (thioether 2-6, N-8) [Cyclic peptide 22] , what is its reported dissociation constant (KD)?
< 0.05 µM

Item under review: {CH2CO}-I[Orn](COCH2)RGD[hCys]F[hCys]KKK (thioether 2-6, N-8) [Cyclic peptide 3] . Reported dissociation constant (KD)?
< 0.05 µM
